Test system: REH;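 also: ALL cell lines in 384-well plates, five doses spanning 10,000-fold, each plate scaled between vehicle and 100 µmol/L benzalkonium chloride controls, sDSS an adapted area-under-curve metric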
METHOD_SUMMARY: selective drug sensitivity score (sDSS, relative to normal bone marrow) (sDSS (score)); higher = more potent and effective on the cell line relative to normal bone marrow cells
RUN_CONDITIONS: 72 h
MEASUREMENT_KIND: selective drug sensitivity score
Answers are plain numbers.

CN1C(=O)N[C@H](Cc2c[nH]c3c(Cl)cccc23)C1=O [Necrostatin_2] (top concentration 10000 nM); -0.08
O=C(Nc1ccc2[nH]nc(-c3ccncc3)c2c1)[C@@H]1CCN(CC(=O)N2CCN(c3ccc(-c4ncccn4)cc3)CC2)C1 (top concentration 10000 nM); 4.86

Now take the following compound into account.
Task: Give a short answer stating reported selective drug sensitivity score for COc1cc(CCc2cc(NC(=O)c3ccc(N4CC(C)NC(C)C4)cc3)n[nH]2)cc(OC)c1 (stereo not drawn) [AZD4547] (top concentration 1000 nM) .
Output: -0.14

Origin of measurements: the supplement of paper PMC8967900
